Values from patent US8859608B2

Experiment: Pharmacokinetics in male Han Wistar rats, intravenous and oral
Assay type: in vivo
Settings: male, Han Wistar, plasma; rat, oral, 1 mg/kg
Measured Property: AUC

Exercise: I'd like to know its AUC. The compound in question is Cc1cccc(NCC2CC3(CCN2C(=O)c2nc(C)sc2-c2ccccc2)CC3)n1 (single isomer, unassigned) [Compound 2]
Solution: ~360 ng·h/mL

* * *

Molecular target: human OX2 receptor (Homo sapiens, UniProt O43614)
Sequence (O43614 whole entry): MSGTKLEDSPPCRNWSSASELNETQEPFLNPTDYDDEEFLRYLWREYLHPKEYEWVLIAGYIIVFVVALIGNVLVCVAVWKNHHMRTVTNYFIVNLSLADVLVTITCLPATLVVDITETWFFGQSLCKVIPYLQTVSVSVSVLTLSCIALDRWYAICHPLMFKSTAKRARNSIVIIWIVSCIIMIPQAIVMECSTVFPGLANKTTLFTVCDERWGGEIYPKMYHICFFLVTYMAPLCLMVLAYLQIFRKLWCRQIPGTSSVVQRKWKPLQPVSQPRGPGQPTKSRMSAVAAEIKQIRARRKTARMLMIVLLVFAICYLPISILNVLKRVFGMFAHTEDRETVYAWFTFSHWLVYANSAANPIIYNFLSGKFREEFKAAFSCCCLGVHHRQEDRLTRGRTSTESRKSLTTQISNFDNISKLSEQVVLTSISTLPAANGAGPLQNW
Test: FLIPR measurement of intracellular calcium, antagonistic activity at OX2
Measured Property: Kb

> print(dat)
                                   compound  measured.property  experimental.result
1  Cc1nc(C(=O)N2CCC3(CC3)CC2CNc2ccc(C(F)(F)F)cn2)c(-c2ccccc2)s1 (racemic) [Compound 7]                 Kb              > 10 µM

Exercise: I'd like to know its Kb. The compound in question is Cc1nc(C(=O)N2CCCCC2CNc2ccc(Cl)cn2)c(-c2ccccc2)s1 (stereo not shown) [comparison 2, reference compound]
Solution: 0.0251 µM

Exercise: For Cc1nc(C(=O)N2CCC3(CC3)CC2CNc2ccc(C(F)(F)F)cn2)c(-c2ccccc2)s1 (single isomer, unassigned) [Compound 8] then?
Solution: > 10 µM

Exercise: For Cc1cc(C)nc(NC[C@@H]2CC3(CCN2C(=O)c2nc(C)sc2-c2ccccc2)CC3)n1 [Compound 22] then?
Solution: > 10 µM

Exercise: For Cc1nc(C(=O)N2CCC3(CC3)C[C@H]2CNc2cccc(Cl)n2)c(-c2ccccc2)s1 [Compound 17] then?
Solution: > 10 µM

Exercise: For Cc1cccc(NCC2CC3(CCN2C(=O)c2nc(C)sc2-c2ccccc2)CC3)n1 (single isomer, unassigned) [Compound 2] then?
Solution: > 10 µM

Exercise: For Cc1cccc(NCC2CCCCN2C(=O)c2nc(C)sc2-c2ccc(F)cc2)n1 (stereo not shown) [comparison 5, reference compound] then?
Solution: 0.00398 µM
